All values here come from patent US6620828B2.

system-under-test: unphosphorylated VEGF-R2Δ50 (FLVK) (Homo sapiens, UniProt P35968, DEL940-989/E990V)
Construct: VEGF-R2Δ50 contains residues 806-939 and 990-1171; made in house; host or cells: baculovirus/insect cells
Sequence (P35968 with tags, fused parts or gaps DEL940-989/E990V limits assumed): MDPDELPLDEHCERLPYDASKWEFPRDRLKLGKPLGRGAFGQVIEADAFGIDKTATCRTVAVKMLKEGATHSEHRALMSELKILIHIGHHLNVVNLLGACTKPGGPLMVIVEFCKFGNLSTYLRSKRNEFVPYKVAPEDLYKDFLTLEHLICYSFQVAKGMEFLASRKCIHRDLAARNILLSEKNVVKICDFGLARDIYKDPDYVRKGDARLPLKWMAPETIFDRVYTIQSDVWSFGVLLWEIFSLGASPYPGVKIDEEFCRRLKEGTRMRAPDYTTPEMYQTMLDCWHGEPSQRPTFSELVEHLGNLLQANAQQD
assay-text: VEGF-R2 coupled spectrophotometric assay, unphosphorylated enzyme (FLVK)
Format: biochemical
settings: Table 1
pKi: −log10 of the molar value.
measurement-label: pKi

Worked cases, answers included:
- smiles-text: "COc1cc(Nc2nc(N)c(-c3nc(-c4cccc(NC(=O)OCc5ccccc5)c4)cs3)s2)cc(OC)c1OC"
  pKi: 8.59
- smiles-text: "COc1cc(Nc2nc(N)c(-c3nc(-c4cccc(NC(=O)c5cccc(C)c5)c4)no3)s2)cc(OC)c1OC"
  pKi: 9.47
- smiles-text: "COc1cc(Nc2nc(N)c(-c3nc(-c4cccc(NC(=O)c5ncc(C)s5)c4)cs3)s2)cc(OC)c1OC"
  pKi: 9.11
- smiles-text: "COc1cc(Nc2nc(N)c(-c3nc(-c4cccc(NC(=O)c5sc(C)nc5C)c4)cs3)s2)cc(OC)c1OC"
  pKi: 8.44
- smiles-text: "COc1cc(Nc2nc(N)c(-c3nc(-c4cccc(NC(=O)c5ncc(C)s5)c4)no3)s2)cc(OC)c1OC"
  pKi: 9.21

P: CC(=O)Nc1nc(N)c(-c2nc(-c3cccc(NC(=O)c4ccccc4)c3)cs2)s1
Q: COc1cc(Nc2nc(N)c(-c3nc(-c4cccc(NC(=O)c5ccccc5)c4)cs3)s2)cc(OC)c1OC
R: Nc1nc(N)c(-c2nc(-c3cccc(NC(=O)c4ccccc4)c3)cs2)s1
Sort these compounds on pKi so the largest reading comes first. Please list each label once, in the requested order.
Q, P, R
(Q: 8.70, P: 8.02, R: 7.42)

---

system-under-test: CDK4/Cyclin D3 complex (Homo sapiens, UniProt P11802)
Construct: made in house; host or cells: insect cells co-infected with baculovirus vectors
Sequence (P11802 whole entry): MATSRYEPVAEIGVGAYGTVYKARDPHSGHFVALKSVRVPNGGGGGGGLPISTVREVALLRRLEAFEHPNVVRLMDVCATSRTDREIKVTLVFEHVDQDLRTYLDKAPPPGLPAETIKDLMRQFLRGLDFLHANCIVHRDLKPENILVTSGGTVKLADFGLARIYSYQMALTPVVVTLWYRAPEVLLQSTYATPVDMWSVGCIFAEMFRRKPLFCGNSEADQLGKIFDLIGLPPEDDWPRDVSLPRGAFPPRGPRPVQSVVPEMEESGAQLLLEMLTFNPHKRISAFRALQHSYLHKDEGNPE
Sequence (P30281 whole entry partner): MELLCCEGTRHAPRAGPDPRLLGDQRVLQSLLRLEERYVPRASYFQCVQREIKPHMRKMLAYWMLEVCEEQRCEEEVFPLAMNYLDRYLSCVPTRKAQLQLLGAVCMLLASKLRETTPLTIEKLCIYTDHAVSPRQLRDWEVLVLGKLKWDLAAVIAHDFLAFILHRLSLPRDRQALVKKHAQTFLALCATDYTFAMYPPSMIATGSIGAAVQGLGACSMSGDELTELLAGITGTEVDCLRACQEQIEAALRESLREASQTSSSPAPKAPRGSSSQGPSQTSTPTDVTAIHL
assay-text: CDK4/Cyclin D assay
Format: biochemical
settings: Table 2
pKi: −log10 of the molar value.
measurement-label: pKi

- smiles-text: "CN(C)c1ccc(Nc2nc(N)c(-c3nc(O)c(-c4ccccc4O)s3)s2)cc1"
  readout-value: 5.77
- smiles-text: "Cc1sc(-c2sc(Nc3ccc(S(N)(=O)=O)cc3)nc2N)nc1-c1ccc(F)cc1"
  readout-value: 5.15
- smiles-text: "COc1cc(Nc2nc(N)c(-c3ccccn3)s2)cc(OC)c1OC"
  readout-value: 4.30

I: Nc1csc(-c2sc(Nc3ccc(S(N)(=O)=O)cc3)nc2N)n1
II: Nc1nc(Nc2ccc(S(N)(=O)=O)cc2)sc1-c1nc(C(=O)c2ccccc2)cs1
Could you tell me which of these two has the smaller pKi figure? First: I Second: II Pick one and reply with its label.
I

---

system-under-test: FGF-R1 (Homo sapiens, UniProt P11362, C488A/C584S/L457V)
Construct: starting from the endogenous methionine residue 456 to glutamate 766
Sequence (P11362 456-766 L457V/C488A/C584S): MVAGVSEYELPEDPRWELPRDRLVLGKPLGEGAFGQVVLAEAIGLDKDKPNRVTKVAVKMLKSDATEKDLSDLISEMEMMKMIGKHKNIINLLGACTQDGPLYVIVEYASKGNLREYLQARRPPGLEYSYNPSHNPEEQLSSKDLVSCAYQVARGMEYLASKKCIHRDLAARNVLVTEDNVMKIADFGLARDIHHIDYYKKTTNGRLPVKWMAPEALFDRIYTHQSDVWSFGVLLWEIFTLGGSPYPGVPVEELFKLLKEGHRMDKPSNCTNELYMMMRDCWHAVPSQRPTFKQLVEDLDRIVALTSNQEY
assay-text: FGF-R spectrophotometric assay
settings: Table 2
measurement-label: Ki (µM)

// worked examples, Ki included
- compound: "COc1cc(Nc2nc(N)c(-c3nc(-c4ccc(O)c(O)c4)cs3)s2)cc(OC)c1OC [A(12)]"
  Ki, µM: 190
- compound: "COc1cc(Nc2nc(N)c(-c3nc(-c4cccc(O)c4)cs3)s2)cc(OC)c1OC [A(17)]"
  Ki, µM: 2.4

P: COc1cc(O)cc(-c2csc(-c3sc(Nc4cc(OC)c(OC)c(OC)c4)nc3N)n2)c1 [A(19)]
Q: COc1cc(Nc2nc(N)c(C3=NC(c4ccccc4)CO3)s2)cc(OC)c1OC (stereo not shown) [I(6)]
Sort P and Q by Ki descending and give the first. In your reply, give the label of the chosen option.
Q
(Q: 22 µM, P: 0.39 µM)
